assay.summary: NCI Yeast Anticancer Drug Screen. Data for the sgs1 mgt1 strain (AID 161);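 note: 0% = growth of cultures given vehicle only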
run.parameters: S. cerevisiae sgs1 mgt1 strain, at 50.0 µM, active compounds read high
About 79,000 compounds went through this panel and 15% of them were active in at least one assay; those are over-represented in the sample as a whole. Active and inactive are the calls of the source. Cut-off read from the data, not from the text of the source: active = growth inhibition above about 70%; inactive = the rest.
quantity: growth inhibition

Brc1ccc(Nc2ccc(Br)cc2Br)c(Br)c1    16.6% (inactive)
CC1=CC(=O)N(n2c(-c3ccccc3)n[nH]c2=O)C1=O    -4.45% (inactive)
C(/C=C/c1ccccc1)=Nc1ccc2c(c1)Cc1ccccc1-2    -25.8% (inactive)
O=S(=O)(O)c1ccc(N/N=C/c2ccccc2)cc1    12.1% (inactive)
O=C1OC(c2ccccc2Cl)Sc2ccccc21 (centres undefined)    20.1% (inactive)

Entry `CCCCCCCCCC(=O)N/N=C/c1ccccc1O` : reported growth inhibition = ?
19.2% (inactive)

For `CCCCCCCCCCCNc1ncnc2[nH]ncc12` then?
5.3% (inactive)

For CCN(CC)CCOC(=O)c1ccc(NC(=O)OCCC(C)OC(=O)Nc2ccc(C(=O)OCCN(CC)CC)cc2)cc1 (centres undefined) then?
-1.65% (inactive)

For `O=C(CCc1ccccc1CO)NCCc1ccccc1` then?
-18.1% (inactive)

For `O=C(/C=C/c1ccccc1)Cc1nc2nnc(NC(=O)Nc3ccc(Cl)cc3)n2[nH]c1=O` then?
1.5% (inactive)

For `COc1cccc(NC(=S)Nn2c(C)nc3ccccc3c2=O)c1` then?
-17.1% (inactive)

For `Cc1ccc2c(c1)[nH]c1ccccc12` then?
26.2% (inactive)

For `O=C(CCC1CCCCC1)OC1CCCC1` then?
-2.7% (inactive)

For `CCOC(=O)N/N=C(\Cc1ccccc1)OCC` then?
8.45% (inactive)

---

assay.summary: NCI Yeast Anticancer Drug Screen. Data for the mec2-1 strain (AID 157)
run.parameters: S. cerevisiae mec2-1 strain, at 50.0 µM
About 79,000 compounds went through this panel and 15% of them were active in at least one assay; those are over-represented in the sample as a whole. Activity calls are given as the source filed them. Rule as the data show it: active = growth inhibition above about 70%; inactive = the rest.
Choose the fitting class; nothing outside active, inactive is accepted.

Cc1c(O)cc(O)c(C)c1C    inactive
O=C1NCCCCC1CC/C=C/c1ccccc1 (stereo not drawn)    inactive
O=C1CC(NC(=O)C(F)(F)F)c2c1csc2Br (stereo not drawn)    inactive
CCOC(=O)C1CN(CCCN2CC(C(=O)OCC)C(=O)C2=O)C(=O)C1=O (stereo not drawn)    inactive
COc1ccccc1/C=N\NC(C)=O    inactive

Assay outcome for Cc1cn(C2CC3[O][Sn]([c]4ccccc4)([c]4ccccc4)[O]CC3O2)c(=O)[nH]c1=O (stereo not drawn) : what was it?
inactive

For `c1ccc(N2CCN(C(c3cccs3)N3CCN(c4ccccc4)CC3)CC2)cc1` then?
inactive

For `CCCCCCCCCCC/C=N\[N+](C)(C)C` then?
active

For CCC(CO)N1CNC(=S)NC1 (stereo not drawn) then?
inactive

For CC(Cl)C(=O)N(C)c1ccccc1 (stereo not drawn) then?
inactive

For `Cc1ccc(S(=O)(=O)n2ccnc2)cc1` then?
inactive

For COc1ccc2c(c1)CC1c3[nH]c4ccccc4c3CCN1C2 (stereo not drawn) then?
inactive

For `C=CCOC(=O)CC` then?
inactive
